Kindly state control solution (absorbance, RAW DATA) for each of the entries shown.
# protocol-description: Screening of protease (pH 7.5), control solution without substrate
# Format: biochemical
# study-conditions: pH 7.5, no substrate; 550 nm, reference 595 nm
Numbers only.

Working through the 2 molecules below one at a time, give control solution (absorbance, RAW DATA) for each.
1. proteinase K: Proteinase K (manufactured by Wako Pure Chemical Industries, Ltd.) (protein, UniProt P06873 106-384, looked up) Proteinase K: AAQTNAPWGLARISSTSPGTSTYYYDESAGQGSCVYVIDTGIEASHPEFEGRAQMVKTYYYSSRDGNGHGTHCAGTVGSRTYGVAKKTQLFGVKVLDDNGSGQYSTIIAGMDFVASDKNNRNCPKGVVASLSLGGGYSSSVNSAAARLQSSGVMVAVAAGNNNADARNYSPASEPSVCTVGASDRYDRRSSFSNYGSVLDIFGPGTSILSTWIGGSTRSISGTSMATPHVAGLAAYLMTLGKTTAASACRYIADTANKGDLSNIPFGTVNLLAYNNYQA
2. carboxypeptidase B: carboxypeptidase B (manufactured by Sigma-Aldrich Corp.) (protein, UniProt P09955 111-416, looked up) Carboxypeptidase B: TTGHSYEKYNNWETIEAWTKQVTSENPDLISRTAIGTTFLGNNIYLLKVGKPGPNKPAIFMDCGFHAREWISHAFCQWFVREAVLTYGYESHMTEFLNKLDFYVLPVLNIDGYIYTWTKNRMWRKTRSTNAGTTCIGTDPNRNFDAGWCTTGASTDPCDETYCGSAAESEKETKALADFIRNNLSSIKAYLTIHSYSQMILYPYSYDYKLPENNAELNNLAKAAVKELATLYGTKYTYGPGATTIYPAAGGSDDWAYDQGIKYSFTFELRDKGRYGFILPESQIQATCEETMLAIKYVTNYVLGHL

0.017
0.028

Working through the 3 molecules below one at a time, give control solution (absorbance, RAW DATA) for each.
1. thermolysin: thermolysin (manufactured by Wako Pure Chemical Industries, Ltd.) (protein, UniProt P00800 233-548, looked up) Thermolysin: ITGTSTVGVGRGVLGDQKNINTTYSTYYYLQDNTRGNGIFTYDAKYRTTLPGSLWADADNQFFASYDAPAVDAHYYAGVTYDYYKNVHNRLSYDGNNAAIRSSVHYSQGYNNAFWNGSQMVYGDGDGQTFIPLSGGIDVVAHELTHAVTDYTAGLIYQNESGAINEAISDIFGTLVEFYANKNPDWEIGEDVYTPGISGDSLRSMSDPAKYGDPDHYSKRYTGTQDNGGVHINSGIINKAAYLISQGGTHYGVSVVGIGRDKLGKIFYRALTQYLTPTSNFSQLRAAAVQSATDLYGSTSQEVASVKQAFDAVGVK
2. protease type XXVII: protease (type XXVII nagase: manufactured by Sigma-Aldrich Corp.) (protein, UniProt P00782 108-382, looked up) Subtilisin BPN': AQSVPYGVSQIKAPALHSQGYTGSNVKVAVIDSGIDSSHPDLKVAGGASMVPSETNPFQDNNSHGTHVAGTVAALNNSIGVLGVAPSASLYAVKVLGADGSGQYSWIINGIEWAIANNMDVINMSLGGPSGSAALKAAVDKAVASGVVVVAAAGNEGTSGSSSTVGYPGKYPSVIAVGAVDSSNQRASFSSVGPELDVMAPGVSIQSTLPGNKYGAYNGTSMASPHVAGAAALILSKHPNWTNTQVRSSLENTTTKLGDSFYYGKGLINVQAAAQ
3. protease type VIII: protease (type VIII Subtilisin Carlsberg: manufactured by Sigma-Aldrich Corp.) (protein, UniProt P00780 106-379, looked up) Subtilisin Carlsberg: AQTVPYGIPLIKADKVQAQGFKGANVKVAVLDTGIQASHPDLNVVGGASFVAGEAYNTDGNGHGTHVAGTVAALDNTTGVLGVAPSVSLYAVKVLNSSGSGSYSGIVSGIEWATTNGMDVINMSLGGASGSTAMKQAVDNAYAKGVVVVAAAGNSGSSGNTNTIGYPAKYDSVIAVGAVDSNSNRASFSSVGAELEVMAPGAGVYSTYPTNTYATLNGTSMASPHVAGAAALILSKHPNLSASQVRNRLSSTATYLGSSFYYGKGLINVEAAAQ

[0.055, 0.016, 0.012]
